measured on: T1, human Claudin18.2 (human)
T1 construct: also called CLDN18.2
procedure details: cell ELISA, Claudin18.2-expressing HEK293T cells
recorded metric: EC50
Kindly report the value followed by its unit.

- 194A2F7 (antibody, V domains shown, mouse hybridoma mAb) VH: QIQLVQSGPELKKPGETVKISCKASGYTFTDYLIHWVKQAPGKGLKWMGWINTETGEPTYADDFKGRFALSLETSASTACLQINNLKNEDTATYFCARIYYGNSFDYWGQGTTLTVSS VL: DIVMTQSPSSLPVTAGEKVTMTCKSSQNLLNSGNQKSYLTWYQQKPGQPPKLLIYWASTRETGVPDRFTGSGSGTDFTLTISSVQAEDLAVYYCQNAYRFPFTFGAGTRLELK: 2.57 nM
- 420D5H5 (antibody, V domains shown, mouse hybridoma mAb) VH: DVQLVESGGGLVQPGGSRKLSCAASGFTLSGFGMHWIRQTPEKGLEWVAYISSGSRPIYYVDTVEGRFTISRDNPKNTLFLQMTSLRSEDTAMYFCARFYYGNSFDHWGQGTLVTVSS VL: DIVMTQSPSFLTVTAGEKVTMSCKSSQSLLNSGNQKNYLTWYQQKPGQPPKLLIYWASTRESGVPDRFTGSGSGTDFTLTIRGVQAEDLALYYCQNAYSFPLTFGAGTKLELK: 7.03 nM

# next binder below
Value of EC50 reported for the binder 273C10E5 (antibody, V domains shown, mouse hybridoma mAb) VH: QVQLQQSGAELVKPGASVKLSCKASGYTFTSFGINWLRQRPEQGLEWIGWIFPGDGNSKYNENFKGKATLTTDKSSSTAYMQVTRLTSEDSAVYFCARFYYGNSFANWGQGTLVTVSA VL: DIVMTQSPSSLTVTAGEKVTMSCKSSQSLLNSGNQKNYLTWYQQKPGQPPKLLIYWAATRESGVPDRFAGSGSGTDFTLTISSVQAEDLAVYYCQNDYFYPFTFGAGTKLELK is 0.181 nM

These measurements were taken from patent US20220073643A1.
